Reported Inhibition percentage values are given for each entry in this list.
System: Stress ulcer induced by water-immersion
Method Notes: Anti-ulcer activity: Stress ulcer induced by water-immersion
Format: in vivo, Wistar rats
Particulars: 3 mg/kg, oral
Description: (iii) Stress ulcer induced by water-immersion An experiment was carried out according to the method of Takagi et al. [K. Takagi et al., Jap. Six Wistar rats (male, 230 to 280 g) per group were starved for 24 hours, after which each drug was orally administered. After 30 minutes, the rats were placed in stress cage, immersed in water at 23° C. to the depth of xiphoid, and allowed to stand therein for 15 hours. […] The inhibition percentage was determined from the following equation: [formula]
Readout Type: Inhibition percentage

- Compound: "O=[N+]([O-])C=C(NCCCOc1cccc(CN2CCCCC2)c1)NCC(O)c1ccc(F)cc1 (stereo not drawn)"
  Experimental Value: "69%"
- Compound: "CNC(=C[N+](=O)[O-])NCCSCc1ccc(CN(C)C)o1 [Ranitidine, reference compound]"
  Experimental Value: "7%"
- Compound: "Cc1cc(CSCCNC(=C[N+](=O)[O-])NCC(O)c2cccc(C(F)(F)F)c2)sc1CN(C)C (stereo not drawn)"
  Experimental Value: "75%"
- Compound: "CN(C)Cc1ccc(CSCCNC(=C[N+](=O)[O-])NCC(O)c2ccc(O)cc2)o1 (stereo not drawn)"
  Experimental Value: "73%"
- Compound: "Cc1cccc(C(O)CNC(=C[N+](=O)[O-])NCCSCc2cc(C)c(CN(C)C)s2)c1 (stereo not drawn)"
  Experimental Value: "78%"
- Compound: "COc1cccc(C(O)CNC(=C[N+](=O)[O-])NCCSCc2cc(C)c(CN(C)C)s2)c1 (stereo not drawn)"
  Experimental Value: "66%"

###

Test system: gastric acid secretion
Method Notes: Inhibitory effect on gastric acid secretion, perfused stomach preparation of anesthetized rat (histamine stimulated)
Assay type: in vivo, Wistar strain rats
Particulars: Rattus norvegicus; intravenous, cumulative; histamine 30 μg/kg/min; read-out: Dose for complete inhibition
Respond with Y for ED100 values of 0.1 mg/kg and above, N for values below.

- Molecule: "O=[N+]([O-])C=C(NCCCOc1cccc(CN2CCCCC2)c1)NCC(O)c1ccc(F)c(F)c1 (stereo not drawn)"
  Answer Label: "Y"
- Molecule: "COc1cccc(C(O)CNC(=C[N+](=O)[O-])NCCSCc2ccc(CN(C)C)o2)c1 (stereo not drawn)"
  Answer Label: "Y"
- Molecule: "N#CNC(=NCC(O)c1ccccc1)NCCSCc1csc(NC(=N)N)n1 (stereo not drawn)"
  Answer Label: "Y"
- Molecule: "O=[N+]([O-])C=C(NCCCOc1cccc(CN2CCCCC2)c1)NCC(O)c1cccc(C(F)(F)F)c1 (stereo not drawn)"
  Answer Label: "Y"
- Molecule: "Cc1cc(CSCCNC(=C[N+](=O)[O-])NCC(O)c2ccc(O)cc2)sc1CN(C)C (stereo not drawn)"
  Answer Label: "Y"
- Molecule: "COc1cccc(C(O)CNC(=C[N+](=O)[O-])NCCSCc2cc(C)c(CN(C)C)s2)c1 (stereo not drawn)"
  Answer Label: "Y"
- Molecule: "CN(C)Cc1ccc(CSCCNC(=C[N+](=O)[O-])NCC(O)c2ccccc2F)o1 (stereo not drawn)"
  Answer Label: "N"
- Molecule: "CNC(=C[N+](=O)[O-])NCCSCc1ccc(CN(C)C)o1 [Ranitidine, reference compound]"
  Answer Label: "Y"
- Molecule: "CSc1ccc(C(O)CNC(=C[N+](=O)[O-])NCCSCc2ccc(CN(C)C)o2)cc1 (stereo not drawn)"
  Answer Label: "Y"
- Molecule: "CCc1cccc(C(O)CNC(=C[N+](=O)[O-])NCCSCc2cc(C)c(CN(C)C)s2)c1 (stereo not drawn)"
  Answer Label: "Y"
- Molecule: "CSc1ccc(C(O)CNC(=C[N+](=O)[O-])NCCCOc2cccc(CN3CCCCC3)c2)cc1 (stereo not drawn)"
  Answer Label: "Y"
- Molecule: "O=[N+]([O-])C=C(NCCCOc1cccc(CN2CCCCC2)c1)NCC(O)c1ccccc1 (stereo not drawn)"
  Answer Label: "N"
- Molecule: "CN(C)Cc1ccc(CSCCNC(=C[N+](=O)[O-])NC[C@@H](O)c2ccc(O)cc2)o1"
  Answer Label: "N"

###

System: Indomethacin ulcer
Method Notes: Anti-ulcer activity: Indomethacin ulcer
Type: in vivo, Wistar strain rats
Particulars: Rattus norvegicus; 1 mg/kg, oral; read-out: Inhibition percentage
Readout Type: inhibition in vivo at 1 mg/kg (%)

- Molecule: "COc1cccc(C(O)CNC(=C[N+](=O)[O-])NCCSCc2cc(C)c(CN(C)C)s2)c1 (centres unmarked)"
  Assay Target: "Indomethacin ulcer"
  Measurement Units: "%"
  Experimental Value: 70
- Molecule: "CN(C)Cc1ccc(CSCCNC(=C[N+](=O)[O-])NCC(O)c2ccc(O)cc2)o1 (centres unmarked)"
  Assay Target: "Indomethacin ulcer"
  Measurement Units: "%"
  Experimental Value: 20
- Molecule: "Cc1cccc(C(O)CNC(=C[N+](=O)[O-])NCCSCc2cc(C)c(CN(C)C)s2)c1 (centres unmarked)"
  Assay Target: "Indomethacin ulcer"
  Measurement Units: "%"
  Experimental Value: 57
- Molecule: "O=[N+]([O-])C=C(NCCCOc1cccc(CN2CCCCC2)c1)NCC(O)c1ccc(F)cc1 (centres unmarked)"
  Assay Target: "Indomethacin ulcer"
  Measurement Units: "%"
  Experimental Value: 88
- Molecule: "Cc1cc(CSCCNC(=C[N+](=O)[O-])NCC(O)c2cccc(Br)c2)sc1CN(C)C (centres unmarked)"
  Assay Target: "Indomethacin ulcer"
  Measurement Units: "%"
  Experimental Value: 24

###

Test system: Stress ulcer induced by water-immersion
Method Notes: Anti-ulcer activity: Stress ulcer induced by water-immersion
Assay type: in vivo, Wistar rats
Particulars: Rattus norvegicus, 15 h; oral; water-immersion stress ulcer; read-out: ID50 (the source's name)
Checkbox rule: ED50 lower than 2 mg/kg = 1; ED50 not lower than 2 mg/kg = 0.

- Compound: "Cc1cc(CSCCNC(=C[N+](=O)[O-])NCC(O)c2cccc(C(F)(F)F)c2)sc1CN(C)C (stereo not drawn) [compound 33]"
  Answer Label: 1
- Compound: "Cc1cccc(C(O)CNC(=C[N+](=O)[O-])NCCSCc2cc(C)c(CN(C)C)s2)c1 (stereo not drawn) [compound 29]"
  Answer Label: 1
- Compound: "CNC(=C[N+](=O)[O-])NCCSCc1ccc(CN(C)C)o1 [Ranitidine, reference compound]"
  Answer Label: 0
- Compound: "COc1cccc(C(O)CNC(=C[N+](=O)[O-])NCCSCc2cc(C)c(CN(C)C)s2)c1 (stereo not drawn) [compound 9]"
  Answer Label: 1
- Compound: "O=[N+]([O-])C=C(NCCCOc1cccc(CN2CCCCC2)c1)NCC(O)c1ccc(F)cc1 (stereo not drawn) [compound 15]"
  Answer Label: 1
- Compound: "CN(C)Cc1ccc(CSCCNC(=C[N+](=O)[O-])NCC(O)c2ccc(O)cc2)o1 (stereo not drawn) [compound 3]"
  Answer Label: 1

###

System: gastric acid secretion
Method Notes: Inhibitory effect on gastric acid secretion, perfused stomach preparation of anesthetized rat (histamine stimulated)
Format: in vivo, Wistar strain rats
Particulars: Rattus norvegicus; intravenous, cumulative; histamine 30 μg/kg/min; read-out: Dose for complete inhibition

- Compound: "COc1ccc(C(O)CNC(=C[N+](=O)[O-])NCCCOc2cccc(CN3CCCCC3)c2)cc1 (centres unmarked)"
  ED100, mg/kg: 0.15
- Compound: "O=[N+]([O-])C=C(NCCCOc1cccc(CN2CCCCC2)c1)NCC(O)c1ccc(O)cc1 (centres unmarked)"
  ED100, mg/kg: 0.15
- Compound: "CN(C)Cc1ccc(CSCCNC(=C[N+](=O)[O-])NCC(O)c2cccnc2)o1 (centres unmarked)"
  ED100, mg/kg: 0.3
- Compound: "CN(C)Cc1ccc(CSCCNC(=C[N+](=O)[O-])NCC(O)c2cccs2)o1 (centres unmarked)"
  ED100, mg/kg: 0.1
- Compound: "Cc1cc(CSCCNC(=C[N+](=O)[O-])NCC(O)c2cccc(Br)c2)sc1CN(C)C (centres unmarked)"
  ED100, mg/kg: 0.3
- Compound: "Cc1ccsc1C(O)CNC(=C[N+](=O)[O-])NCCCOc1cccc(CN2CCCCC2)c1 (centres unmarked)"
  ED100, mg/kg: 0.3
- Compound: "Cc1cccc(C(O)CNC(=C[N+](=O)[O-])NCCSCc2cc(C)c(CN(C)C)s2)c1 (centres unmarked)"
  ED100, mg/kg: 0.3
- Compound: "CN(C)Cc1ccc(CSCCNC(=C[N+](=O)[O-])NCC(O)c2ccc(F)c(F)c2)o1 (centres unmarked)"
  ED100, mg/kg: 0.1

###

Reported ED100 values are given for each entry in this list.
Tested on: gastric acid secretion
Method Notes: Inhibitory effect on gastric acid secretion, perfused stomach preparation of anesthetized rat (histamine stimulated)
Assay type: in vivo, Wistar strain rats
Particulars: Rattus norvegicus; intravenous, cumulative; histamine 30 μg/kg/min; read-out: Dose for complete inhibition

- Compound: "Cc1ccsc1C(O)CNC(=C[N+](=O)[O-])NCCSCc1ccc(CN(C)C)o1 (stereo not shown)"
  Assay Target: "gastric acid secretion"
  Measurement Units: "mg/kg"
  ED100: 0.1
- Compound: "Cc1cc(CSCCNC(=C[N+](=O)[O-])NCC(O)c2cccc(C(F)(F)F)c2)sc1CN(C)C (stereo not shown)"
  Assay Target: "gastric acid secretion"
  Measurement Units: "mg/kg"
  ED100: 0.3
- Compound: "O=[N+]([O-])C=C(NCCCOc1cccc(CN2CCCCC2)c1)NCC(O)c1ccc(F)cc1 (stereo not shown)"
  Assay Target: "gastric acid secretion"
  Measurement Units: "mg/kg"
  ED100: 0.06
- Compound: "O=[N+]([O-])C=C(NCCCOc1cccc(CN2CCCCC2)c1)NCC(O)c1ccc2c(c1)OCO2 (stereo not shown)"
  Assay Target: "gastric acid secretion"
  Measurement Units: "mg/kg"
  ED100: 0.15

Cited source for all entries: patent US4923882A
